B1: glmS ribozyme (parent)
chain: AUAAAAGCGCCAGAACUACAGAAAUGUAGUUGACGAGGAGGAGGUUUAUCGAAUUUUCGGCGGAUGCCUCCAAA

Variants of: B1
Experiment: self-cleavage kobs at 40 uM GlcN6P; higher = faster cleavage; RNA array
Conditions: with glucosamine-6-phosphate
This sample holds only a part of the variants without activity.
readout-name: self-cleavage kobs at 40 uM GlcN6P

A6U G29A G63U	< 1e-05 s⁻¹
C10U G60A	< 1e-05 s⁻¹

Fill in self-cleavage kobs at 40 uM GlcN6P for each of the 5 variants listed.
1. U47A G66U
2. G37U A52U U57A
3. G40A G60A U69A
4. G29C A42C
5. G7A U47C

Outgoing:
["0.00013 s⁻¹", "< 1e-05 s⁻¹", "< 1e-05 s⁻¹", "< 1e-05 s⁻¹", "< 1e-05 s⁻¹"]

Just for reference, the supplement of paper PMC7125110 is where these values come from.
